Measured viability by item
# Assay Notes: drug combination growth inhibition, ovarian cancer – cell-based, oncology-focused library, rucaparib conditional, profiling panel (AID 1508598)
# Cond: patient-derived ovarian cancer cells, CellTiter-Glo viability, 144 h; at 0.0195 µM; OCI-C5x cells; with rucaparib 10 µM; stronger effect = lower value; 100% = cells with rucaparib alone
Test Readout: viability (%)

Compound	Reading
COc1cc(=C2C=c3ccccc3=N2)[nH]/c1=C\c1[nH]c(C)cc1C	115
COc1cc([C@H]2c3cc4c(cc3[C@@H](O[C@@H]3O[C@@H]5CO[C@@H](c6cccs6)O[C@H]5[C@H](O)[C@H]3O)[C@H]3COC(=O)[C@H]23)OCO4)cc(OC)c1O	73.9
C[C@]12CC[C@H]3c4ccc(O)cc4CC[C@H]3[C@@H]1CCC2=O	114
CC(=O)O[C@H]1C(=O)[C@@]2(C)C([C@H](OC(=O)c3ccccc3)[C@]3(O)C[C@H](OC(=O)[C@H](O)[C@@H](NC(=O)c4ccccc4)c4ccccc4)C(C)=C1C3(C)C)[C@]1(OC(C)=O)CO[C@@H]1C[C@H]2O (some centres not stated)	37
Cc1[nH]c(C=C2C(=O)Nc3ccc(S(=O)(=O)Cc4c(Cl)cccc4Cl)cc32)c(C)c1C(=O)N1CCC[C@@H]1CN1CCCC1	107
C[C@H](O[C@H]1OCCN(Cc2n[nH]c(=O)[nH]2)[C@H]1c1ccc(F)cc1)c1cc(C(F)(F)F)cc(C(F)(F)F)c1	108
O=c1[nH]c(=O)n([C@@H]2C[C@H](O)[C@@H](CO)O2)cc1F	98.9

* * *

# Assay Notes: growth inhibition, single agents and combos, ICB984, cell-based, cisplatin or BGB combos, synergistic combos for chromothripsis tumors (AID 1671451);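 note: cells exposed for 96 hours before readout; 0% = vehicle DMSO and 100% = killing by high DMSO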
# Cond: ICB984 medulloblastoma cells, drug combinations, measured here: 5 uM single agent, at 5 µM, stronger effect = higher value
Non-standard residues stand in square brackets, D forms with d. Residues, ends and D or L forms follow the SMILES beside them. Dolaproine = CO[C@@H]([C@@H]1CCCN1)[C@@H](C)C(=O)O; Dil = CC[C@H](C)[C@H](NC)[C@@H](CC(=O)O)OC; NMeV = CN[C@H](C(=O)O)C(C)C
Measured inhibition by item
Test Readout: inhibition

Compound	Reading
C=C(NC(=O)C(=C)NC(=O)c1csc(C2=NC3c4csc(n4)C4NC(=O)c5csc(n5)C(C(C)(O)C(C)O)NC(=O)C5CSC(=N5)/C(=C/C)NC(=O)C(C(C)O)NC(=O)c5csc(n5)C3(CC2)NC(=O)C(C)NC(=O)C(=C)NC(=O)C(C)NC(=O)C(C(C)CC)NC2C=Cc3c(C(C)O)cc(nc3C2O)C(=O)OC4C)n1)C(N)=O (stereo not drawn)	-28.7%
Cc1cn(C2C=CC(CO)O2)c(=O)[nH]c1=O (stereo not drawn)	-29.8%
CC[C@H](C)[C@@H]([C@@H](CC(=O)N1CCC[C@H]1[C@H](OC)[C@@H](C)C(=O)N[C@@H](Cc1ccccc1)C(=O)O)OC)N(C)C(=O)[C@@H](NC(=O)[C@@H](NC)C(C)C)C(C)C (H-[NMeV]V[Dil][Dolaproine]F-OH)	-7.94%
C[C@@H]1COCCN1c1cc(C2(S(C)(=O)=O)CC2)nc(-c2cccc3[nH]ccc23)n1	12.7%
CC1CN(c2c(F)c(N)c3c(=O)c(C(=O)O)cn(C4CC4)c3c2F)CC(C)N1 (stereo not drawn)	-29.6%
O=C(CCSc1nc2ccccc2c(=O)[nH]1)NC1CCC(c2nnc(-c3ccccc3)o2)CC1 (stereo not drawn)	-18.3%
COc1ccc(-c2nc(-c3cc(C(F)(F)F)cc(C(F)(F)F)c3)n(Cc3ccc(C(N)=O)cc3)c2-c2ccc(OC)cc2)cc1	-2.84%
C#CCC(CCCCCC)C(=O)O (stereo not drawn)	-4.43%
O=C1C(=Cc2cccnc2)C(=O)c2ccccc21	-20.5%
O=C(CCCCCCC(=O)Nc1ccc(I)cc1)NO	-6.51%
Cc1cc(C)cc(C(=O)NOCCCCCC(=O)NO)c1	-20.9%
CCC1(O)C(=O)OCc2c1cc1n(c2=O)Cc2cc3cc(O)ccc3nc2-1 (stereo not drawn)	-24.3%
Cc1c(Br)cc(NCC(=O)N/N=C/c2cc([N+](=O)[O-])ccc2O)cc1Br	-33%
COc1cccc2c1C(=O)c1c(O)c3c(c(O)c1C2=O)CC(O)(C(C)=O)CC3OC1CC(N)C(O)C(C)O1 (stereo not drawn)	8.05%
COc1cccc2c1C(=O)c1c(O)c3c(c(O)c1C2=O)CC(O)(C(=O)CO)CC3OC1CC(N)C(OC2CCCCO2)C(C)O1 (stereo not drawn)	-14.9%
C=C1C(=O)O[C@@H]2C=C(C)CCC=C(C)CC[C@@H]12	-11.6%
C=CC1=C(C)C2=CC3=NC(=C(CC(=O)O)C4=NC(=C(C)C4=C(O)O)C=c4[nH]c(c(C)c4CC)=CC1=N2)C(CCC(=O)O)C3C (stereo not drawn)	5.39%
O=C1N=c2ccccc2=C1c1c(O)[nH]c2ccccc12	-12.3%

* * *

Measured fold change by item
# Assay Notes: viability loss with induced miR-34 in A549 – imaging, A549 dox-inducible miR-34, nuclei and caspase counts, primary screen (AID 1347080)
# Cond: A549 miR-34 inducible, Hoechst nuclei count, 48 h; stronger effect = lower value; cell number ratio, induced over uninduced
Test Readout: fold change

Molecule	Reading
O=C(NCCO)c1cccc(-c2cc(Nc3ccc(OC(F)(F)F)cc3)ncn2)c1	0.847
O=C1CCC[C@@H]2[C@@H]3CCC[N+]4([O-])CCC[C@H](CN12)[C@@H]34 (some centres undefined)	0.977
CCN1CC(C)n2c(c(O)c3c(=O)n(Cc4ccc(F)c(Cl)c4)nc(C(=O)NC)c32)C1=O (centres undefined)	1.07
NCCCCCNCC12CC3CC(CC(C3)C1)C2	0.991
Nc1ncnc2c1ncn2[C@@H]1O[C@H](COP(=O)(O)OP(=O)(O)OP(=O)(O)OP(=O)(O)OC[C@@H]2O[C@H](n3cnc4c(N)ncnc43)C(O)[C@@H]2O)[C@H](O)C1O (some centres undefined)	0.899
CCC1OC(=O)C(C)C(OC2C[C@@](C)(OC)C(O)C(C)O2)C(C)C(OC2OC(C)CC(N(C)C)C2O)[C@](C)(O)CC(C)CN(C)C(C)C(O)[C@]1(C)O (some centres undefined)	0.925
Cc1ccsc1C(=CCCN1CCCC(C(=O)O)C1)c1sccc1C (centres undefined)	0.928
O=C(O)CCCC[C@@H]1CCSS1	0.958
CC(C)C(N)C(=O)OCC(CO)OCN1C=NC2C(=O)NC(N)=NC21 (centres undefined)	0.916
Fc1ccccc1-c1cc(NCc2ccncc2)n2nccc2n1	1.06
CC(C)c1nc(N(C)S(C)(=O)=O)nc(-c2ccc(F)cc2)c1C=CC(O)CC(O)CC(=O)O (centres undefined)	0.92
O=C(O)CCC(=O)Nc1ccc(Br)cn1	0.858
O=C(Nc1ccccc1)N1CCN(c2nc(-c3ccccc3)ns2)CC1	1.02
Nc1nc(=O)n(C2CSC(CO)O2)cc1F (centres undefined)	0.88
Cc1ccc(-c2ncnc3scc(C)c23)c2cccnc12	0.907
COCc1cc(O)c(O)c(O)c1-c1c(COC)cc(O)c(O)c1O	1.2
CCOc1ccc(C=C2NCCc3cc(OCC)c(OCC)cc32)cc1OCC	0.846
Cc1cccc(C)c1OCC(=O)O	0.919
CCc1ccc(C=C2SC(=S)NC2=O)cc1	0.911
Nc1ncnc2c1c(I)cn2[C@@H]1O[C@H](CO)[C@H](O)C1O (some centres undefined)	1.01
CC(=O)O[C@H]1C[C@@]2(C)[C@@H](C[C@@H](O)[C@H]3[C@@]4(C)CC[C@@H](O)[C@@H](C)C4CC[C@@]32C)/C1=C(\CCC=C(C)C)C(=O)O (some centres undefined)	0.911
O=C(O)CCCCCNC(=O)NC1CCCCC1	0.882
O=C(C=Cc1ccc(CN(CCO)CCc2c[nH]c3ccccc23)cc1)NO	0.866
C[C@H]1[C@H](C)CC[C@]2(C(=O)O[C@@H]3O[C@H](COC4O[C@H](CO)[C@@H](OC5O[C@@H](C)[C@H](O)[C@@H](O)[C@H]5O)[C@H](O)[C@H]4O)[C@@H](O)[C@H](O)[C@H]3O)CC[C@]3(C)C(=CC[C@@H]4[C@@]5(C)C[C@@H](O)[C@H](O)[C@@](C)(CO)C5CC[C@]43C)[C@H]12 (some centres undefined)	0.957
CCNc1ncc(-c2cc(C(=O)N(C)CCN(C)C)c3cc(F)ccc3n2)cn1	0.912
CC(CS)C(=O)N1CCCC1C(=O)O (centres undefined)	1.01
O=C(O)/C(=C/c1c(C(=O)O)[nH]c2cc(Cl)cc(Cl)c12)c1ccccc1	1.07
OCCCc1cn(CC2CCN(c3ncnc4nc[nH]c34)CC2)nn1	0.959
CC(C)OC(=O)OCOP(=O)(COC(C)Cn1cnc2c(N)ncnc21)OCOC(=O)OC(C)C (centres undefined)	0.941
CN1CC[C@H](c2c(O)cc(O)c3c(=O)cc(-c4ccccc4Cl)oc23)C(O)C1 (some centres undefined)	0.938
O=C(Nc1cccc(Cl)c1)c1ccccn1	0.981
C[C@H](C(=O)O)c1cccc(C(=O)c2ccccc2)c1	0.744
O=C(Nc1n[nH]c(-c2ccccc2)n1)N1CCN(c2ccc(F)cc2)CC1	0.826
Fc1ccc(CC2CCNCC2)cc1	0.856
OCC(CO)NC1C[C@@](O)(CO)C(O)C(O)C1O (some centres undefined)	0.838
CC[C@H]1OC(=O)[C@H](C)C(O[C@H]2C[C@@](C)(OC)[C@@H](O)[C@H](C)O2)[C@H](C)[C@@H](OC2O[C@H](C)C[C@H](N(C)C)[C@H]2O)[C@](C)(O)C[C@@H](C)CN(C)[C@H](C)[C@@H](O)[C@]1(C)O (some centres undefined)	1.06
O=C1NC(=O)C(=Cc2ccc3nccc(-c4ccncc4)c3c2)S1	0.936
COc1ccc(C(=O)/C(Br)=C\C(=O)O)cc1	0.888
O=C1CCCc2occ(C(=O)N3CCc4[nH]nc(Cc5ccccc5)c4C3)c21	0.979

Cited source for all entries: PubChem BioAssay
